Source: a melting point compilation (Tetko et al.; mined from patent text by program, amines drawn as free bases though some values may be those of a salt)

Exercise: for every item that follows, state its recorded melting point.

[Q] Name the reported melting point value associated with the compound CN(C)c1nc(NS(=O)(=O)c2ccc(N)cc2)cc(N2CCC2)n1
[A] 239 to 240 °C

[Q] Then what about the compound Cn1nnnc1S(=O)CCCCS(=O)(=O)c1nnnn1C (configuration not stated) ?
[A] 147 to 149 °C

[Q] Then what about the compound CC(C)N(C(=O)n1nc(Oc2ccc(C(F)(F)F)cc2[N+](=O)[O-])cc1C(F)(F)F)C(C)C ?
[A] 118 to 120 °C

[Q] Then what about the compound CCCCN(CCCC)Cc1nc(-c2ncn3c2CN(C)C(=O)c2cc(F)ccc2-3)no1 ?
[A] 137 to 140 °C

[Q] Then what about the compound Cc1ccnc(C(=O)c2ccc(F)cc2)c1 ?
[A] 98 to 100 °C

[Q] Then what about the compound CC(Oc1ncn(-c2cccc(Br)c2)n1)C(=O)O (configuration not stated) ?
[A] 198 to 200 °C

[Q] Then what about the compound COc1ccc(S(=O)(=O)N(CCC(=O)N2CCC(C(=O)O)CC2)C(CCc2ccccc2)C(=O)NO)cc1 (configuration not stated) ?
[A] 85 to 92 °C

[Q] Then what about the compound FC(F)(F)COc1ccc(OCc2ccccc2)cc1 ?
[A] 72 to 74 °C

[Q] Then what about the compound Cc1ccc(-c2nn(-c3ccccc3)c(N)c2C#N)cc1 ?
[A] 186 to 188 °C

[Q] Then what about the compound CN(C)C1(c2ccc(F)cc2)CCC(N2CCC(c3c[nH]c4ccccc34)C2)CC1 (configuration not stated) ?
[A] 248 to 250 °C

[Q] Then what about the compound N#CCc1cnn2ccc3c(c12)CCO3 ?
[A] 165 to 166 °C

[Q] Then what about the compound CCOC(=O)c1c(C(F)(F)F)nc(-c2cccs2)c(-c2ccccc2)c1O ?
[A] 136 °C
